Experiment: 23Na-NMR sodium sensing (shiftability and broadening)
Type: physicochemical
Details: 150 mM NaCl
Source text: The synthesized complexes are characterized for water proton relaxivities with different concentrations of complexes, as well as their proton sensing (with BIRDS and CEST) and sodium sensing (with ^23Na-MRSI) properties on a Bruker AVANCE III HD 500 vertical-bore spectrometer (Bruker, Billerica, MA, USA) interfaced with Bruker TopSpin v3.2 software. […]
PROPERTY_MEASURED: Broadening (βc)

COMPOUND	RECORDED_VALUE
O=C(CN1CCN(CC(=O)NCP(=O)(O)O)CCN(CC(=O)NCP(=O)(O)O)CCN(CC(=O)NCP(=O)(O)O)CC1)NCP(=O)(O)O.[Fe+2] [FeDOTA-4AMP^6-]	0.020 ppm/mM
O=P(O)(O)CN1CCN(CP(=O)(O)O)CCN(CP(=O)(O)O)CCN(CP(=O)(O)O)CC1.[Co+2] [CODOTP^6-]	0.016 ppm/mM
O=P(O)(O)CN1CCN(CP(=O)(O)O)CCN(CP(=O)(O)O)CC1.[Fe+2] [FeNOTP^4-]	0.015 ppm/mM
O=P(O)(O)CN1CCN(CP(=O)(O)O)CCN(CP(=O)(O)O)CC1.[Co+2] [CONOTP^4-]	0.013 ppm/mM
O=P(O)(O)CN1CCN(CP(=O)(O)O)CCN(CP(=O)(O)O)CCN(CP(=O)(O)O)CC1.[Fe+2] [FeDOTP^6-]	0.023 ppm/mM

Challenge: // returns reported Broadening (βc) for input O=C(CN1CCN(CC(=O)NCP(=O)(O)O)CCN(CC(=O)NCP(=O)(O)O)CCN(CC(=O)NCP(=O)(O)O)CC1)NCP(=O)(O)O.[Co+2] [CoDOTA-4AMP^6-]
Response given: 0.022 ppm/mM
